These data points were gathered from ChEMBL document CHEMBL6114955.

assay: Ratio of half life in human liver microsomes in presence of BNPP to t1/2 in human liver microsomes absence of BNPP; type: ADME, Microsome
Kindly state Ratio for each of the entries shown.
Answer using only a numeral; do not append any unit.

Req: Quick one: Ratio of CCC(=O)SCCCCCCC(=O)Nc1nc(-c2ccc(F)cc2)cs1 ?
Resp: 7.77

Req: Quick one: Ratio of O=C(CCCCCCSC(=O)c1ccccc1)Nc1nc(-c2ccc(F)cc2)cs1 ?
Resp: 4.63

Req: Quick one: Ratio of CC(=O)SCCCCCCC(=O)Nc1nc(-c2ccc(F)cc2)cs1 ?
Resp: 10.1

Req: Quick one: Ratio of CC(C)(C)C(=O)NCSCCCCCCC(=O)Nc1nc(-c2ccc(F)cc2)cs1 ?
Resp: 13.27

Req: Quick one: Ratio of CCOP(=O)(OCC)SCCCCCCC(=O)Nc1nc(-c2ccc(F)cc2)cs1 ?
Resp: 18.22

Req: Quick one: Ratio of CN(C)C(=O)SCCCCCCC(=O)Nc1nc(-c2ccc(F)cc2)cs1 ?
Resp: 5.32

Req: Quick one: Ratio of CNC(=O)SCCCCCCC(=O)Nc1nc(-c2ccc(F)cc2)cs1 ?
Resp: 8.53

Req: Quick one: Ratio of CCCCSSCCCCCCC(=O)Nc1nc(-c2ccc(F)cc2)cs1 ?
Resp: 1.66

Req: Quick one: Ratio of COC(=O)SCCCCCCC(=O)Nc1nc(-c2ccc(F)cc2)cs1 ?
Resp: 35.87

Req: Quick one: Ratio of CC(C)N(C(=O)SCCCCCCC(=O)Nc1nc(-c2ccc(F)cc2)cs1)C(C)C ?
Resp: 2.03

Req: Quick one: Ratio of CC(=O)NCSCCCCCCC(=O)Nc1nc(-c2ccc(F)cc2)cs1 ?
Resp: 9.53

Req: Quick one: Ratio of O=C(CCCCCCSC(=O)c1ccc(C(F)(F)F)cc1)Nc1nc(-c2ccc(F)cc2)cs1 ?
Resp: 2.52

Req: Quick one: Ratio of CC(C)(C)SSCCCCCCC(=O)Nc1nc(-c2ccc(F)cc2)cs1 ?
Resp: 1.26

Req: Quick one: Ratio of COP(=O)(OC)SCCCCCCC(=O)Nc1nc(-c2ccc(F)cc2)cs1 ?
Resp: 16.8

Req: Quick one: Ratio of O=C(CCCCCCSP(=O)(c1ccccc1)c1ccccc1)Nc1nc(-c2ccc(F)cc2)cs1 ?
Resp: 26.7

* * *

assay: Ratio of half life in human liver microsomes in presence of ABT to t1/2 in human liver microsomes absence of ABT; format: ADME, Microsome
Quantity Name: Ratio

Req: Quick one: Ratio of O=C(CCCCCCSC(=O)c1ccccc1)Nc1nc(-c2ccc(F)cc2)cs1 ?
Resp: 0.74

Req: Quick one: Ratio of CNC(=O)SCCCCCCC(=O)Nc1nc(-c2ccc(F)cc2)cs1 ?
Resp: 10.62

Req: Quick one: Ratio of CCC(=O)SCCCCCCC(=O)Nc1nc(-c2ccc(F)cc2)cs1 ?
Resp: 0.48

Req: Quick one: Ratio of CN(C)C(=O)SCCCCCCC(=O)Nc1nc(-c2ccc(F)cc2)cs1 ?
Resp: 26.54

Req: Quick one: Ratio of O=C(CCCCCCSC(=O)c1ccc(C(F)(F)F)cc1)Nc1nc(-c2ccc(F)cc2)cs1 ?
Resp: 0.66

Req: Quick one: Ratio of COC(=O)SCCCCCCC(=O)Nc1nc(-c2ccc(F)cc2)cs1 ?
Resp: 1.09

Req: Quick one: Ratio of CC(=O)NCSCCCCCCC(=O)Nc1nc(-c2ccc(F)cc2)cs1 ?
Resp: 7.71

Req: Quick one: Ratio of O=C(CCCCCCSP(=O)(c1ccccc1)c1ccccc1)Nc1nc(-c2ccc(F)cc2)cs1 ?
Resp: 37.24

Req: Quick one: Ratio of CC(=O)SCCCCCCC(=O)Nc1nc(-c2ccc(F)cc2)cs1 ?
Resp: 0.93

Req: Quick one: Ratio of CCOP(=O)(OCC)SCCCCCCC(=O)Nc1nc(-c2ccc(F)cc2)cs1 ?
Resp: 8.2
